Every entry's value here was drawn from patent US20030130484A1.

test: Solubility in aqueous media and organic solvents
endpoint label: solubility

CC(=O)N[C@@H](CCCCN)C(=O)N[C@@H](CC(C)C)C(=O)N[C@H](C(=O)N[C@@H](Cc1ccccc1)C(=O)N[C@@H](Cc1ccccc1)C(N)=O)C(C)C [Aβ16-20, reference compound]	~1000 µM

Now look at this one.
compound CC(=O)N[C@@H](CCCCN)C(=O)N(C)[C@@H](CC(C)C)C(=O)N[C@H](C(=O)N(C)[C@@H](Cc1ccccc1)C(=O)N[C@@H](Cc1ccccc1)C(N)=O)C(C)C [Aβ16-20m, Ac—NH—K(me-L)V(me-F)F—CONH2] , solubility observed: ≥ 30000 µM

###

target: Aβ40 (Homo sapiens, UniProt P05067); test: Inhibition of Aβ40 fibrillogenesis, thioflavin T fluorescence assay; assay type: biochemical
Sequence (P05067 672-711): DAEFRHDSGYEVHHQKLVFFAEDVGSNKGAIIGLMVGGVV
Square brackets hold non-standard residues; d marks the D form. Peptide text beside a SMILES is read from it. NMeF = CN[C@@H](Cc1ccccc1)C(=O)O; NMeL = CN[C@@H](CC(C)C)C(=O)O; NMeV = CN[C@H](C(=O)O)C(C)C; NMeA = CN[C@@H](C)C(=O)O
The entries below are paired with their reported Inhibition of Fibrillogenesis ICmax.
Note: the reply should be a number with no unit written.

CC(C)C[C@H](NC(=O)[C@@H](N)CCCCN)C(=O)N(C)[C@H](C(=O)N(C)[C@@H](Cc1ccccc1)C(=O)N(C)[C@@H](Cc1ccccc1)C(=O)N(C)[C@@H](C)C(=O)N[C@@H](CCC(=O)O)C(N)=O)C(C)C [Aβ16-22m(4), NH2-KL(me-V)(me-F)(me-F)(me-A)-E-CONH2] (H-KL[NMeV][NMeF][NMeF][NMeA]E-NH2)	100

Hey, Aβ40 (Homo sapiens, UniProt P05067) data for CC(=O)N[C@@H](CCCCN)C(=O)N[C@@H](CC(C)C)C(=O)N[C@H](C(=O)N[C@@H](Cc1ccccc1)C(=O)N[C@@H](Cc1ccccc1)C(N)=O)C(C)C [Ac-Aβ16-20, Ac-NH-KLVFF-CONH2, reference compound] : Inhibition of Fibrillogenesis ICmax came out at 100

Inhibition of Fibrillogenesis ICmax on Aβ40 (Homo sapiens, UniProt P05067) for CC(C)C[C@@H](C(=O)N[C@H](C(=O)N(C)[C@@H](Cc1ccccc1)C(=O)N[C@@H](Cc1ccccc1)C(=O)N(C)[C@@H](C)C(=O)N[C@@H](CCCCN)C(N)=O)C(C)C)N(C)C(=O)[C@@H](N)CCC(=O)O [Aβ16-22mR, NH2-E(me-L)V(me-F)F(me-A)-K-CONH2] (H-E[NMeL]V[NMeF]F[NMeA]K-NH2) is 100

Aβ40 (Homo sapiens, UniProt P05067) Inhibition of Fibrillogenesis ICmax of CC(C)C[C@H](NC(=O)[C@@H](N)CCCCN)C(=O)N[C@H](C(=O)N[C@@H](Cc1ccccc1)C(=O)N[C@@H](Cc1ccccc1)C(=O)N[C@@H](C)C(=O)N[C@@H](CCC(=O)O)C(N)=O)C(C)C [Aβ16-22, NH2-KLVFFAE-CONH2] (H-KLVFFAE-NH2) is 23.0

Note to self: Inhibition of Fibrillogenesis ICmax of CC(C)[C@H](NC(=O)[C@H](C(C)C)N(C)C(=O)[C@H](C)NC(=O)[C@H](C)NC(=O)[C@H](C)NC(=O)[C@H](C)N(C)C(=O)[C@H](C)NC(=O)CN)C(N)=O [PrPm, NH2-GA(me-A)AAA(me-V)V-CONH2] (H-GA[NMeA]AAA[NMeV]V-NH2) with Aβ40 (Homo sapiens, UniProt P05067) was 8.6

Considering CC(C)C[C@@H](C(=O)N[C@H](C(=O)N(C)[C@@H](Cc1ccccc1)C(=O)N[C@@H](Cc1ccccc1)C(=O)N(C)[C@@H](C)C(=O)N[C@@H](CCC(=O)O)C(N)=O)C(C)C)N(C)C(=O)[C@@H](N)CCCCN [Aβ16-22m, NH2-K(me-L)V(me-F)F(me-A)-E-CONH2] (H-K[NMeL]V[NMeF]F[NMeA]E-NH2) , its Inhibition of Fibrillogenesis ICmax with Aβ40 (Homo sapiens, UniProt P05067) was recorded as 100

###

target: Aβ40 (Homo sapiens); assay: Inhibition of Aβ40 fibrillogenesis, thioflavin T fluorescence assay; format: biochemical
Square brackets hold non-standard residues; d marks the D form. Peptide text beside a SMILES is read from it. NMeF = CN[C@@H](Cc1ccccc1)C(=O)O; NMeL = CN[C@@H](CC(C)C)C(=O)O; NMeV = CN[C@H](C(=O)O)C(C)C; NMeA = CN[C@@H](C)C(=O)O
endpoint label: Inhibition of Fibrilogenesis ICmax
Reply with the number, then its unit.

CC(C)C[C@H](NC(=O)[C@@H](N)CCCCN)C(=O)N[C@H](C(=O)N[C@@H](Cc1ccccc1)C(=O)N[C@@H](Cc1ccccc1)C(=O)N[C@@H](C)C(=O)N[C@@H](CCC(=O)O)C(N)=O)C(C)C [Aβ16-22, NH2-KLVFFAE-CONH2] (H-KLVFFAE-NH2)	23.0%
CC(C)C[C@@H](C(=O)N[C@H](C(=O)N(C)[C@@H](Cc1ccccc1)C(=O)N[C@@H](Cc1ccccc1)C(=O)N(C)[C@@H](C)C(=O)N[C@@H](CCC(=O)O)C(N)=O)C(C)C)N(C)C(=O)[C@@H](N)CCCCN [Aβ16-22m, NH2-K(me-L)V(me-F)F(me-A)-E-CONH2] (H-K[NMeL]V[NMeF]F[NMeA]E-NH2)	100%
CC(C)[C@H](NC(=O)[C@H](C(C)C)N(C)C(=O)[C@H](C)NC(=O)[C@H](C)NC(=O)[C@H](C)NC(=O)[C@H](C)N(C)C(=O)[C@H](C)NC(=O)CN)C(N)=O [PrPm, NH2-GA(me-A)AAA(me-V)V-CONH2] (H-GA[NMeA]AAA[NMeV]V-NH2)	8.6%
CNc1ccccc1C(=O)N[C@@H](CCCCN)C(=O)N[C@@H](CC(C)C)C(=O)N[C@H](C(=O)N[C@@H](Cc1ccccc1)C(=O)N[C@@H](Cc1ccccc1)C(N)=O)C(C)C	100%
CC(C)C[C@H](NC(=O)[C@@H](N)CCCCN)C(=O)N(C)[C@H](C(=O)N(C)[C@@H](Cc1ccccc1)C(=O)N(C)[C@@H](Cc1ccccc1)C(=O)N(C)[C@@H](C)C(=O)N[C@@H](CCC(=O)O)C(N)=O)C(C)C [Aβ16-22m(4), NH2-KL(me-V)(me-F)(me-F)(me-A)-E-CONH2] (H-KL[NMeV][NMeF][NMeF][NMeA]E-NH2)	100%
CC(=O)N[C@@H](CCCCN)C(=O)N[C@@H](CC(C)C)C(=O)N[C@H](C(=O)N[C@@H](Cc1ccccc1)C(=O)N[C@@H](Cc1ccccc1)C(N)=O)C(C)C [Ac-Aβ16-20, Ac-NH-KLVFF-CONH2, reference compound]	100%

Here's the next entry for you.
Noted for CC(C)C[C@@H](C(=O)N[C@H](C(=O)N(C)[C@@H](Cc1ccccc1)C(=O)N[C@@H](Cc1ccccc1)C(=O)N(C)[C@@H](C)C(=O)N[C@@H](CCCCN)C(N)=O)C(C)C)N(C)C(=O)[C@@H](N)CCC(=O)O [Aβ16-22mR, NH2-E(me-L)V(me-F)F(me-A)-K-CONH2] (H-E[NMeL]V[NMeF]F[NMeA]K-NH2) : its Inhibition of Fibrilogenesis ICmax reads 100%

###

biological target: Aβ40 fibrils (Homo sapiens)
endpoint label: half-life (min)
The answer is to be given in min; state only the numeric part.

Aβ40 fibrils (Homo sapiens) assay, molecule CC(=O)N[C@@H](CCCCN)C(=O)N(C)[C@@H](CC(C)C)C(=O)N[C@H](C(=O)N(C)[C@@H](Cc1ccccc1)C(=O)N[C@@H](Cc1ccccc1)C(N)=O)C(C)C [Aβ16-20m, Ac—NH—K(me-L)V(me-F)F—CONH2] , recorded half-life = 24
